molecular target: PIK3Cb_h (Homo sapiens, UniProt P42338); construct: purchased Eurofins DiscoveRx Corporation; test: Enzyme binding assay (KINOMEscan); conditions: Eurofins DiscoveRx
Sequence (P42338 whole entry): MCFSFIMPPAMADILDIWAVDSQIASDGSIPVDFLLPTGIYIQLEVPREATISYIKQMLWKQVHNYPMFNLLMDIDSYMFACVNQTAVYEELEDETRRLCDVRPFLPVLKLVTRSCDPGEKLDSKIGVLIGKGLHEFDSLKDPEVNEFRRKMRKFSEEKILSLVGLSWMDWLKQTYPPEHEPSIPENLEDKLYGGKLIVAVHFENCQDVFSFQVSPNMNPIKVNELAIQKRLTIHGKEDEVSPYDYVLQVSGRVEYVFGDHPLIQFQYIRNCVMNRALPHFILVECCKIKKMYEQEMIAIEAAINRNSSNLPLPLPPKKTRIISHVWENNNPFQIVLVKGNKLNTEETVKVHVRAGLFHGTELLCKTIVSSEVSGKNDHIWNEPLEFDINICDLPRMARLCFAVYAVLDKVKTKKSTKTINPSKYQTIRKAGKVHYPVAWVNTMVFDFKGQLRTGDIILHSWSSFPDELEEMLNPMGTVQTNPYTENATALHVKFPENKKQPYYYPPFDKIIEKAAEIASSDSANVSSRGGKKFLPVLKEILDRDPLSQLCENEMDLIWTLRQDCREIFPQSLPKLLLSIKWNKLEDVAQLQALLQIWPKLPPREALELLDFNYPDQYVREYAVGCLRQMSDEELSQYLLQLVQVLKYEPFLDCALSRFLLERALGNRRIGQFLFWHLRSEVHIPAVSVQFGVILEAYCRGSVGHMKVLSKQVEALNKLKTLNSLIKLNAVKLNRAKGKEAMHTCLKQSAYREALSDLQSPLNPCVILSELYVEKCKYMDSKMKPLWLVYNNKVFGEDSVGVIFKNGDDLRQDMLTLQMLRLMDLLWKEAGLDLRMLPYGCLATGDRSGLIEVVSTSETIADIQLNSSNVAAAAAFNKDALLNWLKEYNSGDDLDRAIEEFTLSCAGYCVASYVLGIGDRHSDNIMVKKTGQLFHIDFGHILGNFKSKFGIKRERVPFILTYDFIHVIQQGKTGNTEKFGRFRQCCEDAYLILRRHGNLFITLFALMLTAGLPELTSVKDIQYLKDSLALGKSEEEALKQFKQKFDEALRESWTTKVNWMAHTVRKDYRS
RESULT TYPE: Kd (nM)

>>> readout_number("CC(Nc1cc(F)cc(F)c1)c1cc(N)cc2c(=O)cc(N3CCOCC3)oc12 (stereo not shown) [Compound 19]")
0.067
>>> readout_number("CN1CCN(C(=O)c2cc(CN3CCc4c(F)cc(F)cc43)c3oc(N4CCOCC4)cc(=O)c3c2)CC1 [Compound 44]")
1.3

I: CN(C)CCNC(=O)c1cc(CN2CCc3c(F)cc(F)cc32)c2oc(N3CCOCC3)cc(=O)c2c1 [Compound 39]
II: C[C@@H](Nc1cc(F)cc(F)c1)c1cc(C(=O)N2CC[C@@H](N(C)C)C2)cn2c(=O)cc(N3CCOCC3)nc12 [Compound 50]
III: CC(Nc1cc(F)cc(F)c1)c1cc(C(=O)N2CCC(N(C)C)C2)cc2c(=O)cc(N3CCOCC3)oc12 (stereo not shown) [Compound 27]
IV: CNS(=O)(=O)c1cc(C(C)Nc2cc(F)cc(F)c2)c2oc(N3CCOCC3)cc(=O)c2c1 (stereo not shown) [Compound 16]
V: CC(Nc1cc(F)cc(F)c1)c1cc(NC(=O)C2CCCC2)cc2c(=O)cc(N3CCOCC3)oc12 (stereo not shown) [Compound 12]
Arrange by Kd, high to low. Ranked list of labels, please, in the requested order.
V, III, IV, II, I
(V: 0.55 nM, III: 0.28 nM, IV: 0.19 nM, II: 0.11 nM, I: 0.072 nM)

====

molecular target: PIK3Cb_h (Homo sapiens, UniProt P42338); construct: purchased Eurofins DiscoveRx Corporation; experiment: Enzyme binding assay (KINOMEscan); details: Eurofins DiscoveRx
RESULT TYPE: Kd (nM)

A: Cc1cc(C(C)N2CCc3c(F)cc(F)cc32)c2nc(N3CCOCC3)cc(=O)n2c1 (stereo not drawn) [Compound 59]
B: Cc1cc(C(C)N2c3cc(F)cc(F)c3CC2C)c2nc(N3CCOCC3)cc(=O)n2c1 (stereo not drawn) [Compound 58]
Which has the higher Kd, A or B ? Kindly state the label of the option you pick.
B

I: CC(Nc1cc(F)cc(F)c1)c1cc(C(=O)N2CC(N(C)C)C2)cn2c(=O)cc(N3CCOCC3)nc12 (stereo not drawn) [Compound 49]
II: CC(Nc1cc(F)cc(F)c1)c1cc(N2CCOCC2=O)cc2c(=O)cc(N3CCOCC3)oc12 (stereo not drawn) [Compound 10]
III: CC(Nc1cc(F)cc(F)c1)c1cc(C(=O)N2CC[C@H](N(C)C)C2)cc2c(=O)cc(N3CCOCC3)oc12 (stereo partly drawn) [Compound 30]
IV: CC(Nc1cc(F)cc(F)c1)c1cc(C(=O)N2CCC(N(C)C)C2)cn2c(=O)cc(N3CCOCC3)nc12 (single isomer, unassigned) [Compound 48-P1]
Given 4 molecules, produce a descending ranking by Kd. Sort and list the labels as requested.
IV, I, III, II
(IV: 400 nM, I: 0.67 nM, III: 0.32 nM, II: 0.2 nM)

====

molecular target: PIK3Ca_h (Homo sapiens, UniProt P42336); construct: purchased Eurofins DiscoveRx Corporation; assay: Enzyme binding assay (KINOMEscan); details: Eurofins DiscoveRx
Sequence (P42336 whole entry): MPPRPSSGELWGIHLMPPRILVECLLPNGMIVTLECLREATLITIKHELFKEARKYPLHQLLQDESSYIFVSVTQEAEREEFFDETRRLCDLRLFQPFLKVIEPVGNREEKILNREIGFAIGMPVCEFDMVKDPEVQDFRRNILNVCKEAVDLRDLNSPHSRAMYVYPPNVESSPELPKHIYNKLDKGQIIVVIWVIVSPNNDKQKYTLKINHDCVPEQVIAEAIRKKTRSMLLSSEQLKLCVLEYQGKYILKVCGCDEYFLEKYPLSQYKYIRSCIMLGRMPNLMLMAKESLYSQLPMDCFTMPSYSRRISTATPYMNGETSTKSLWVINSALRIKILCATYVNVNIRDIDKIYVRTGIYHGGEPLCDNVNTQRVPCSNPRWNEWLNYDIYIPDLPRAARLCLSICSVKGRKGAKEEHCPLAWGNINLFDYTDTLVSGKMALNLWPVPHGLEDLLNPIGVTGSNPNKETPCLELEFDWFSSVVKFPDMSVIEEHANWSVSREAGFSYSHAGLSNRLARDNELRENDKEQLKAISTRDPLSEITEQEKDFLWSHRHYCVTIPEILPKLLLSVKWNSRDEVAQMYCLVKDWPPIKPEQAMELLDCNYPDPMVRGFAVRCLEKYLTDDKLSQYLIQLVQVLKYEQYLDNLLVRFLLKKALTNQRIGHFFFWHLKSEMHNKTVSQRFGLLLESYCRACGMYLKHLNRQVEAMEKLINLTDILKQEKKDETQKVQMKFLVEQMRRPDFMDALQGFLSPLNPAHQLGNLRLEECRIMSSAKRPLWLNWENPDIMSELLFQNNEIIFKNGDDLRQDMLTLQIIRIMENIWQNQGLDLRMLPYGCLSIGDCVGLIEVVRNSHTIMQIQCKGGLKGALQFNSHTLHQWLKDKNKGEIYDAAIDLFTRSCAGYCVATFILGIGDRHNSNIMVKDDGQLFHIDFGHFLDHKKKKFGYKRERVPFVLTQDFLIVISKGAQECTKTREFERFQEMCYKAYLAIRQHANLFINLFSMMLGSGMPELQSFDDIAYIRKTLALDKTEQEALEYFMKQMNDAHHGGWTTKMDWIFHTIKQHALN
RESULT TYPE: Kd (nM)

>>> readout_number("CC(Nc1cc(F)cc(F)c1)c1cc(N2CCOCC2=O)cc2c(=O)cc(N3CCOCC3)oc12 (stereo not shown) [Compound 10]")
22

a: CC1Cc2c(F)cccc2N1Cc1cc(C(=O)N(C)C)cc2c(=O)cc(N3CCOCC3)oc12 (stereo not shown) [Compound 33]
b: C[C@@H](Nc1cc(F)cc(F)c1)c1cc(C(=O)N2CC[C@@H](N(C)C)C2)cn2c(=O)cc(N3CCOCC3)nc12 [Compound 48-P3]
Two entries are listed, a and b . Which one carries the higher Kd? Lab note: record the label of whichever item you select.
b
(b: 92 nM, a: 17 nM)

The measurements presented in this section are drawn from patent US20240166617A1.
